target: DNA topoisomerase II (Homo sapiens) (UniProt P11388+Q02880); test: Compound was tested for DNA Topoisomerase II mediated cleavage of DNA; Each + indicates 2 to 4 fold increase; assay type: protein assay
measured_property: Activity

• COc1cc(C2C3Nc4ccccc4C3CC3CCC(=O)N32)cc(OC)c1O (centres undefined) = ++
• COC(=O)N1CCc2c([nH]c3ccccc23)C1c1cc(OC)c(O)c(OC)c1 (stereo in doubt; 4) = ++(+)
• COc1cc([C@@H]2c3cc4c(cc3[C@@H](O[C@@H]3O[C@@H]5CO[C@@H](C)O[C@H]5[C@H](O)[C@H]3O)[C@H]3COC(=O)[C@H]23)OCO4)cc(OC)c1O = ++
